- assay_details: Cell cycle arrest in human MCF10A cells assessed as accumulation at S phase after 48 hrs using propidium iodide staining by flow cytometry (reference value: 21.78 +/- 0.46 %)
- Assay type: ADME, cell-based
- run_parameters: mcf-10a
// assign t if Activity falls strictly below 30%, else f (ties count as f)

I wonder whether O=[N+]([O-])c1ccccc1S(=O)(=O)N1CC(n2cnc3c(I)nc(Cl)nc32)OCc2ccccc21 (racemic) has Activity below 30%. Can you tell?
t

I wonder whether O=[N+]([O-])c1ccc(S(=O)(=O)N2CC(n3cnc4c(Cl)nc(Cl)nc43)OCc3ccccc32)cc1 (racemic) has Activity below 30%. Can you tell?
t

I wonder whether O=c1[nH]cc(F)c(=O)[nH]1 has Activity below 30%. Can you tell?
f

I wonder whether O=[N+]([O-])c1ccc(S(=O)(=O)N2C[C@H](n3cnc4c(Cl)nc(Cl)nc43)OCc3ccccc32)cc1 has Activity below 30%. Can you tell?
t

I wonder whether O=[N+]([O-])c1ccc(S(=O)(=O)N2C[C@@H](n3cnc4c(Cl)nc(Cl)nc43)OCc3ccccc32)cc1 has Activity below 30%. Can you tell?
t

I wonder whether CC(=O)O[C@H]1C(=O)[C@@]2(C)[C@H]([C@H](OC(=O)c3ccccc3)[C@]3(O)C[C@H](OC(=O)[C@H](O)[C@@H](NC(=O)c4ccccc4)c4ccccc4)C(C)=C1C3(C)C)[C@]1(OC(C)=O)CO[C@@H]1C[C@@H]2O has Activity below 30%. Can you tell?
f

---

- Tested on: MCF7
- assay_details: Induction of apoptosis in human MCF7 cells assessed as viable cells at IC50 concentration after 48 hrs using V-FITC and propidium iodide staining by flow cytometry (reference value: 86.26 +/- 7.25 %)
For each record, write down the corresponding viability.
I only need the number, in %, no unit after it.

Query (compound): O=[N+]([O-])c1ccc(S(=O)(=O)N2C[C@H](n3cnc4c(Cl)nc(Cl)nc43)OCc3ccccc32)cc1 ; field requested: viability
44.55

Query (compound): O=[N+]([O-])c1ccccc1S(=O)(=O)N1CC(n2cnc3c(Br)ncnc32)OCc2ccccc21 (racemic) ; field requested: viability
67.6

Query (compound): O=[N+]([O-])c1ccccc1S(=O)(=O)N1CC(n2cnc3nc(Cl)nc(Cl)c32)OCc2ccccc21 (racemic) ; field requested: viability
79.78

Query (compound): O=S(=O)(c1ccccc1NO)N1CC(n2cnc3c(Cl)nc(Cl)nc32)OCc2ccccc21 (racemic) ; field requested: viability
70.82

---

- assay_details: Cell cycle arrest in human MCF10A cells assessed as accumulation at G0/G1 phase after 48 hrs using propidium iodide staining by flow cytometry (reference value: 65.70 +/- 1.14 %)
- Assay type: ADME, cell-based
- run_parameters: mcf-10a
property_measured: Activity (%)
I only need the number, in %, no unit after it.

Query (compound): O=[N+]([O-])c1ccccc1S(=O)(=O)N1CC(n2cnc3c(I)nc(Cl)nc32)OCc2ccccc21 (racemic) ; field requested: Activity
66.69

Query (compound): O=[N+]([O-])c1ccc(S(=O)(=O)N2C[C@@H](n3cnc4c(Cl)nc(Cl)nc43)OCc3ccccc32)cc1 ; field requested: Activity
64.22

Query (compound): CC(=O)O[C@H]1C(=O)[C@@]2(C)[C@H]([C@H](OC(=O)c3ccccc3)[C@]3(O)C[C@H](OC(=O)[C@H](O)[C@@H](NC(=O)c4ccccc4)c4ccccc4)C(C)=C1C3(C)C)[C@]1(OC(C)=O)CO[C@@H]1C[C@@H]2O ; field requested: Activity
36.76

Query (compound): O=c1[nH]cc(F)c(=O)[nH]1 ; field requested: Activity
34.2

Query (compound): O=[N+]([O-])c1ccc(S(=O)(=O)N2C[C@H](n3cnc4c(Cl)nc(Cl)nc43)OCc3ccccc32)cc1 ; field requested: Activity
65.33

Query (compound): O=[N+]([O-])c1ccc(S(=O)(=O)N2CC(n3cnc4c(Cl)nc(Cl)nc43)OCc3ccccc32)cc1 (racemic) ; field requested: Activity
65.94

---

For each record, write down the corresponding viability.
- Test system: MCF7
- assay_details: Induction of apoptosis in human MCF7 cells assessed as viable cells at IC50 concentration after 48 hrs using V-FITC and propidium iodide staining by flow cytometry (reference value: 86.26 +/- 7.25 %)
Please don't drop the unit; write it after the number.

Query (compound): COC(CN(c1ccccc1CO)S(=O)(=O)c1ccc([N+](=O)[O-])cc1)n1cnc2c(Cl)nc(Cl)nc21 (racemic) ; field requested: viability
49.71%

Query (compound): O=[N+]([O-])c1ccccc1S(=O)(=O)N1CC(n2cnc3c(Cl)nc(Cl)nc32)OCc2ccccc21 (racemic) ; field requested: viability
74.31%

Query (compound): O=[N+]([O-])c1ccccc1S(=O)(=O)N1CC(n2cnc3c(I)nc(Cl)nc32)OCc2ccccc21 (racemic) ; field requested: viability
58.32%

Query (compound): O=[N+]([O-])c1ccc(S(=O)(=O)N2CC(n3cnc4c(Cl)nc(Cl)nc43)OCc3ccccc32)cc1 (racemic) ; field requested: viability
46.65%

Query (compound): O=[N+]([O-])c1ccc(S(=O)(=O)N2CC(n3cnc4c(Br)ncnc43)OCc3ccccc32)cc1 (racemic) ; field requested: viability
51.04%

Query (compound): O=[N+]([O-])c1ccc(S(=O)(=O)N2C[C@@H](n3cnc4c(Cl)nc(Cl)nc43)OCc3ccccc32)cc1 ; field requested: viability
63.98%

Query (compound): Clc1nc(Sc2ccccc2)c2ncn(C3CNc4ccccc4CO3)c2n1 (racemic) ; field requested: viability
76.3%

Query (compound): Nc1ccccc1S(=O)(=O)N1CC(n2cnc3c(Cl)nc(Cl)nc32)OCc2ccccc21 (racemic) ; field requested: viability
76.34%

Query (compound): c1ccc(Sc2nc(Sc3ccccc3)c3ncn(C4CNc5ccccc5CO4)c3n2)cc1 (racemic) ; field requested: viability
71.84%

---

- System: MCF7
- assay_details: Induction of apoptosis in human MCF7 cells assessed as necrotic cells at IC50 concentration after 48 hrs using V-FITC and propidium iodide staining by flow cytometry (reference value: 12.61 +/- 7.50 %)
- Format: functional
// assign satisfied if Activity falls strictly below 3%, else not satisfied (ties count as not satisfied)

I wonder whether O=[N+]([O-])c1ccc(S(=O)(=O)N2CC(n3cnc4c(Cl)nc(Cl)nc43)OCc3ccccc32)cc1 (racemic) has Activity below 3%. Can you tell?
not satisfied

I wonder whether Nc1ccccc1S(=O)(=O)N1CC(n2cnc3c(Cl)nc(Cl)nc32)OCc2ccccc21 (racemic) has Activity below 3%. Can you tell?
satisfied

I wonder whether O=[N+]([O-])c1ccc(S(=O)(=O)N2CC(n3cnc4c(Br)ncnc43)OCc3ccccc32)cc1 (racemic) has Activity below 3%. Can you tell?
not satisfied

I wonder whether Clc1nc(Sc2ccccc2)c2ncn(C3CNc4ccccc4CO3)c2n1 (racemic) has Activity below 3%. Can you tell?
not satisfied

---

- Test system: MDA-MB-231
- assay_details: Cell cycle arrest in human MDA-MB-231 cells assessed as accumulation at G2/M phase after 48 hrs using propidium iodide staining by flow cytometry (reference value: 31.59 +/- 0.03 %)
- Type: functional
// label = fulfilled if Activity is not less than 30%, otherwise not fulfilled

// inclusive: Activity at least 30%? input: O=[N+]([O-])c1ccc(S(=O)(=O)N2C[C@H](n3cnc4c(Cl)nc(Cl)nc43)OCc3ccccc32)cc1
fulfilled

// inclusive: Activity at least 30%? input: O=[N+]([O-])c1ccc(S(=O)(=O)N2CC(n3cnc4c(Cl)nc(Cl)nc43)OCc3ccccc32)cc1 (racemic)
not fulfilled

// inclusive: Activity at least 30%? input: CC(=O)O[C@H]1C(=O)[C@@]2(C)[C@H]([C@H](OC(=O)c3ccccc3)[C@]3(O)C[C@H](OC(=O)[C@H](O)[C@@H](NC(=O)c4ccccc4)c4ccccc4)C(C)=C1C3(C)C)[C@]1(OC(C)=O)CO[C@@H]1C[C@@H]2O [PACLITAXEL]
not fulfilled

// inclusive: Activity at least 30%? input: O=c1[nH]cc(F)c(=O)[nH]1 [FLUOROURACIL]
not fulfilled

---

- Test system: MCF7
- assay_details: Induction of apoptosis in human MCF7 cells assessed as early apoptotic cells at IC50 concentration after 48 hrs using V-FITC and propidium iodide staining by flow cytometry relative to control
- Assay type: functional
For each record, write down the corresponding Activity.
I only need the number, in %, no unit after it.

Query (molecule): Clc1nc(Sc2ccccc2)c2ncn(C3CNc4ccccc4CO3)c2n1 (racemic) ; field requested: Activity
15.81

Query (molecule): O=[N+]([O-])c1ccc(S(=O)(=O)N2CC(n3cnc4c(Br)ncnc43)OCc3ccccc32)cc1 (racemic) ; field requested: Activity
35.64

Query (molecule): O=[N+]([O-])c1ccccc1S(=O)(=O)N1CC(n2cnc3c(Cl)nc(Cl)nc32)OCc2ccccc21 (racemic) ; field requested: Activity
19.61

Query (molecule): O=[N+]([O-])c1ccc(S(=O)(=O)N2CC(n3cnc4c(Cl)nc(Cl)nc43)OCc3ccccc32)cc1 (racemic) ; field requested: Activity
23.38
